# MEASUREMENT DESCRIPTION: Unbound brain to plasma concentration ratio in CD-1 mouse at 10 mg/kg, po administered via gavage measured up to 7 hrs by LC/MS analysis
# Type: ADME, organism-based
# APPLIED CONDITIONS: brain and plasma
RESULT TYPE: Kp uu at 7 h

{"columns": ["COMPOUND", "MEASURED NUMBER"],
 "data": [
  ["Fc1c(Cl)cccc1Nc1ncnc2cc3c(cc12)OCCO3", 1.04],
  ["C#Cc1cccc(Nc2ncnc3cc4c(cc23)OCCO4)c1", 0.491],
  ["Fc1c(Br)cccc1Nc1ncnc2cc3c(cc12)OCCO3", 1.3],
  ["Fc1cccc(Nc2ncnc3cc4c(cc23)OCCO4)c1F", 1.04],
  ["Fc1c(I)cccc1Nc1ncnc2cc3c(cc12)OCCO3", 1.03],
  ["C#Cc1cccc(Nc2ncnc3cc(OCCOC)c(OCCOC)cc23)c1 [ERLOTINIB]", 0.051],
  ["C#Cc1cccc(Nc2ncnc3cc4c(cc23)OCCO4)c1F", 0.575]
]}

====

Below is a list of entries, each paired with its recorded Papp at 2 h value.
# MEASUREMENT DESCRIPTION: Apparent permeability in MDCK2-MDR1 cells incubated for 2 hrs by LC-MS/MS analysis
# Format: ADME, cell-based, Canis lupus familiaris
# APPLIED CONDITIONS: dog, MDCK-MDR1

{"columns": ["SMILES DATA", "Papp at 2 h"],
 "data": [
  ["Fc1c(Cl)cccc1Nc1ncnc2cc3c(cc12)OCCO3", "28.5 ×10⁻⁶ cm/s"],
  ["Fc1c(Br)cccc1Nc1ncnc2cc3c(cc12)OCCO3", "15 ×10⁻⁶ cm/s"],
  ["Fc1cccc(Nc2ncnc3cc4c(cc23)OCCO4)c1F", "20 ×10⁻⁶ cm/s"],
  ["Fc1c(I)cccc1Nc1ncnc2cc3c(cc12)OCCO3", "14.4 ×10⁻⁶ cm/s"],
  ["C#Cc1cccc(Nc2ncnc3cc4c(cc23)OCCO4)c1", "16.9 ×10⁻⁶ cm/s"],
  ["C#Cc1cccc(Nc2ncnc3cc4c(cc23)OCCO4)c1F", "21.5 ×10⁻⁶ cm/s"]
]}

====

Below is a list of entries, each paired with its recorded IC50 value.
# ASSAY SYSTEM: Epidermal growth factor receptor (Homo sapiens)
# Sequence (P00533 whole entry): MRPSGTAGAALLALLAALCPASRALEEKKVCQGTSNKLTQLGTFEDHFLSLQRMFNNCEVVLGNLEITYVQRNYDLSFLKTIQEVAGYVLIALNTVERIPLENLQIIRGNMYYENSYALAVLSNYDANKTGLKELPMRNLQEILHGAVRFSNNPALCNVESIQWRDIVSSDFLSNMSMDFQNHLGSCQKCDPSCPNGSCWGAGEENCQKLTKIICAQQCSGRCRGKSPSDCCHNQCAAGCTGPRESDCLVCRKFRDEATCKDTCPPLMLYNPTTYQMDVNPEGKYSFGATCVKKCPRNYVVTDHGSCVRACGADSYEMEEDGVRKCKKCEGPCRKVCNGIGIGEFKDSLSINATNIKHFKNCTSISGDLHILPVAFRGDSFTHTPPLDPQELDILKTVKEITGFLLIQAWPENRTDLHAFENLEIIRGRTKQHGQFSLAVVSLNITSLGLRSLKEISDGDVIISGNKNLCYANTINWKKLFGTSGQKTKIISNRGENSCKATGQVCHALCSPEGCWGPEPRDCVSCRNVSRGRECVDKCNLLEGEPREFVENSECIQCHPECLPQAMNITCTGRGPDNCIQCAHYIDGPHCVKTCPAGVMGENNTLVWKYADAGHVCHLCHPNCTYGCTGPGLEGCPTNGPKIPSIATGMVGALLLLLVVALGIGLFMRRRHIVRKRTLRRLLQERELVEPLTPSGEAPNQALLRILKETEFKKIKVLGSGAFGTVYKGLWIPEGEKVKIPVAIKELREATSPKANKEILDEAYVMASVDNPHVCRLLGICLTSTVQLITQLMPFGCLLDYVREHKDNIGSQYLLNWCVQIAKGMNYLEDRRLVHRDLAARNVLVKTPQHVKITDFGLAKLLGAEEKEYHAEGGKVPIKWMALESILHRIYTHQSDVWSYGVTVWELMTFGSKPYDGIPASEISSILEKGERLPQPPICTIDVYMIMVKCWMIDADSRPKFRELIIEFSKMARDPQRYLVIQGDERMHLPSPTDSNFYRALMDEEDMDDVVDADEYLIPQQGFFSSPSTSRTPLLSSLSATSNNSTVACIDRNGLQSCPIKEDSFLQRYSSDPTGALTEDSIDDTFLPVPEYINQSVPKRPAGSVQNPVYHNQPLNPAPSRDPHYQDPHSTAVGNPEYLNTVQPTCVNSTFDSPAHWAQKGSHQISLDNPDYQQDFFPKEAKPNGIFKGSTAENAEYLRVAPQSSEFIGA
# MEASUREMENT DESCRIPTION: Inhibition of wild type EGFR in human U87 cells assessed as heparin/human EGF stimulated phosphorylation after 1 hr by immunoblotting analysis
# Assay type: cell-based

{"columns": ["SMILES DATA", "IC50"],
 "data": [
  ["C#Cc1cccc(Nc2ncnc3cc4c(cc23)OCCO4)c1", "59.8 nM"],
  ["N#Cc1cccc(Nc2ncnc3cc4c(cc23)OCCO4)c1", "45.3 nM"],
  ["Fc1ccc(Nc2ncnc3cc4c(cc23)OCCO4)c(F)c1Br", "21.9 nM"],
  ["Fc1c(Nc2ncnc3cc4c(cc23)OCCO4)ccc(Cl)c1Cl", "36.7 nM"],
  ["N#Cc1cccc(Nc2ncnc3cc4c(cc23)OCCO4)c1F", "28.2 nM"],
  ["Fc1c(Nc2ncnc3cc4c(cc23)OCCO4)cccc1C(F)(F)F", "55 nM"]
]}

====

Below is a list of entries, each paired with its recorded pIC50 value.
# MEASUREMENT DESCRIPTION: Inhibition of EGFRvIII mutant in human U87 cells assessed as phosphorylation after 1 hr by immunoblotting analysis
# Type: cell-based
# APPLIED CONDITIONS: U-87 MG
pIC50: −log10 of the molar value.

{"columns": ["SMILES DATA", "pIC50"],
 "data": [
  ["Fc1c(Nc2ncnc3cc4c(cc23)OCCO4)ccc(Cl)c1Cl", 7.40],
  ["C#Cc1cccc(Nc2ncnc3cc4c(cc23)OCCO4)c1F", 7.49],
  ["Oc1c(Br)cccc1Nc1ncnc2cc3c(cc12)OCCO3", 5.64],
  ["Fc1c(Nc2ncnc3cc4c(cc23)OCCO4)ccc(Cl)c1Br", 7.51],
  ["Fc1ccc(Br)c(F)c1Nc1ncnc2cc3c(cc12)OCCO3", 7.56],
  ["Fc1ccc(Nc2ncnc3cc4c(cc23)OCCO4)c(F)c1Br", 7.24],
  ["N#Cc1cccc(Nc2ncnc3cc4c(cc23)OCCO4)c1", 7.08],
  ["Fc1cc(Br)c(F)c(Nc2ncnc3cc4c(cc23)OCCO4)c1", 7.79],
  ["Fc1c(I)cccc1Nc1ncnc2cc3c(cc12)OCCO3", 7.35],
  ["Fc1c(Nc2ncnc3cc4c(cc23)OCCO4)ccc(Br)c1Br", 7.44],
  ["Fc1c(Nc2ncnc3cc4c(cc23)OCCO4)cccc1C(F)(F)F", 7.12],
  ["Brc1cccc(Nc2ncnc3cc4c(cc23)OCCO4)c1", 7.37]
]}
